SYSTEM UNDER TEST: T1, human 4-1BB (h4-1BB) on transiently transfected CHO cells (human, UniProt Q07011 24-255)
T1 construct: also called TNFRSF9; CD137
TEST DESCRIPTION: flow cytometry, CHO cells transfected with human 4-1BB, antibody at 0.01 µg/ml
READOUT: percentage of cells with FITC signal (%)
All answers are understood in %, so give the number only.

Recorded results for 2 binders are shown here.
>>> numeric_value("45-8F1 (antibody, V domains shown, mouse antibody purified from ascites) VH: EVQLQQSGTVLARPGASVKMSCKASGYSFTSYWMHWVKQRPGQGLEWIGVIYPGNSDTSYNQKFKGKAKLTAVTSASTAYMDLSSLTNEDSAVYYCTRGITTAPDYWGQGTTLTVSS VL: NIVMTQSPKSMSMSVGERVTLSCKASENVGIHVSWYQQKPEQSPKLLIYGASSGYNGVPDRFTGSGSATDFTLTISSVQPEDLADYHCGQTYSYPFTFGSGTKLEIK")
6.21
>>> numeric_value("16-1C4 (antibody, V domains shown, mouse antibody purified from ascites) VH: QGQMQQSGAELVKPGASVKLSCKTSGFTFSSSYINWLKQKPGQSLEWIAWIFAGTGGTYYNQKFTGKAQLTVDTSSGTAYMQFSSLTTEDSAIYYCARHSPRATLFDFWGQGTTLTVSS VL: QIVLSQSPAILSASPGEKVTMTCRASSSVNHMHWYQQRTGFSPKAWIYATSNLASGVPARFSGSGSGTSYSLTISRVEAEDAATYYCQQWSSNPYTFGGGTKLEIK")
6.61

Please look at the following binder next.
Lookup: Looking for the measured percentage of cells with FITC signal of 56-2A6 (antibody, V domains shown, mouse antibody purified from ascites) VH: QIQLVQSGPELKKPGETVKISCKASGYTFTNYGMNWVKQAPGKGFKWMGWINTYTGEPTYADDFKGRFAFSLEISASTAYLQINNLKNEDTATYFCARRDYLGAMDYWGQGTSVTVSS VL: ENVLTQSPAIMSASPGEKVTMTCRASSSVSSSYLHWYQQKSGASPKLWIYSTSNLASGVPARFSGSGSGTSYSLTISSVEAEDAATYYCQQYSAYLYTFGGGTKLEIK , can you help?
Found: 0.89
